System: L1210 leukemia ip in BDF1 mice, survival T/C
Test: NCI In Vivo Anticancer Drug Screen. Data for tumor model L1210 Leukemia (intraperitoneal) in B6D2F1 (BDF1) mice
Details: endpoint: mean survival time; dose: 200.0 mg/kg/injection; schedule: Q01DX009 (ip); vehicle: Klucel (hydroxypropylcellulose) (HPC); higher = longer survival
Toxic doses and inconclusive results are not listed.
Value Type: T/C

INSERT INTO assay_data (molecule, tested_target, measured_result) VALUES
  ('O=C(O)/C=C/C(=O)NCCc1ccccc1', 'L1210 leukemia ip in BDF1 mice, survival T/C', '102 % of control'),
  ('CCOC(=O)Nc1ccc(OC)cc1', 'L1210 leukemia ip in BDF1 mice, survival T/C', '98 % of control'),
  ('CSc1ccc(NC(=O)Oc2ccc(NC(C)=O)cc2)cc1', 'L1210 leukemia ip in BDF1 mice, survival T/C', '106 % of control');

Batch request: T/C per item, same order as input.
1. C/C(N=Nc1ccccc1[N+](=O)[O-])=N\Nc1ccccc1
2. CCc1ccccc1NC(=O)NC(C)C
3. COc1cc(C(=O)NC2CC(C)CC(C)(C)C2)cc(OC)c1OC (configuration not stated)
4. COC(=O)C1CCCC23CC(CC12)C(C)(C)C3Br (configuration not stated)
5. Cc1nc2[nH][nH]c(=O)c2nc1C

Output line:
["95 % of control", "91 % of control", "91 % of control", "97 % of control", "94 % of control"]

---

System: L1210 leukemia ip in BDF1 mice, survival T/C
Test: NCI In Vivo Anticancer Drug Screen. Data for tumor model L1210 Leukemia (intraperitoneal) in B6D2F1 (BDF1) mice
Settings: endpoint: mean survival time; dose: 400.0 mg/kg/injection; schedule: Q04DX003 (ip); vehicle: saline with Tween-80; higher = longer survival
Inconclusive results and toxic doses are left out.
I'd appreciate it if you could supply T/C values for the items below.

Worked cases, T/C given:
INSERT INTO measurements (compound, measured_result) VALUES
  ('COc1ccc(NC(=O)C(c2ccccc2)c2ccccc2)cc1', '92 % of control'),
  ('O=Cc1ccc(N(c2ccc(C=O)cc2)c2ccc(C=O)cc2)cc1', '92 % of control');

Batch request: T/C per item, same order as input.
1. CCOc1c(N2CCOCC2)c(=O)c1=O
2. CCCCCCC(=O)/C=C/c1ccc(Cl)cc1
3. OC1CC2CCC1C2 (stereo not drawn)
4. c1ccc(N/N=C(\Sc2ccccc2)c2ccccc2)cc1
5. NC(=O)OCCOCCOC(N)=O
6. COC1CC(O)C(O)C(C)O1 (stereo not drawn)

Output line:
["93 % of control", "93 % of control", "88 % of control", "94 % of control", "101 % of control", "100 % of control"]

Batch request: T/C per item, same order as input.
1. CC(C)c1ccccc1OS(=O)(=O)c1ccccc1
2. O=c1cc(CNC23CC4CC(CC(C4)C2)C3)[nH]c(=O)[nH]1
3. COC(=O)CC(CC(=O)OC)c1cccc([N+](=O)[O-])c1
4. Cc1ccc(S(=O)(=O)N/N=C2\CC3(Cl)CCC2C3)cc1 (stereo not drawn)
5. Cc1ccc(C(=O)c2ccccc2C(=O)O)cc1N

Output line:
["98 % of control", "89 % of control", "101 % of control", "101 % of control", "97 % of control"]
